measured on: T1, recombinant human IL-23R/Fc chimera (R&D Systems) (human, UniProt Q5VWK5 24-355)
T1 construct: Bought; also called rhIL23RFc
T1 sequence (looked up): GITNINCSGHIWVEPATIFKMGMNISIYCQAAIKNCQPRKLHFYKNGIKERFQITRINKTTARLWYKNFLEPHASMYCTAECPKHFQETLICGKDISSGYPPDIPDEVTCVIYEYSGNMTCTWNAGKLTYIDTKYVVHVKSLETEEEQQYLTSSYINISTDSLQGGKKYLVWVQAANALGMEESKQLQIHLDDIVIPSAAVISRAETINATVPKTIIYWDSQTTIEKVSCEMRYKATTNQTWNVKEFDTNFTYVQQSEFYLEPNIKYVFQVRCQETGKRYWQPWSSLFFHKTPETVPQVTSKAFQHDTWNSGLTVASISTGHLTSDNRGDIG
assay info: SPR
Below, each entry is listed alongside its reported kon.
Form entry: value (M⁻¹ s⁻¹) — number only.

These solved cases illustrate the format of a correct answer.
binder="101-54-4B6 ATRIMER complex (designed binder) EPPTQKPKKIVNAKKDVVNTKMFEELKSRLDTLAQEVALLKEQQALQTVCLKGTKVHMKCFLAFTQTKTFHEASEDCISRGGTLSTPQTGSENDALYEYLRQSVGNEAEIWLGLNGSALTNTWVDMTGARIAYKNWEPPGPHHPMGGFGVFGENCAVLSGAANGKWFDKRCRDQLPYICQFGIV" measured=687000
binder="001-87.A5F monomeric CTLD (designed binder, not shown: small tags and cut ends, C-terminal tag not specified) ALQTVCLKGTKVHMKCFLAFTQTKTFHEASEDCISRGGTLSTPQTGSENDALYEYLRQSVGNEAEIWLGLNGSVRSATWVDMTGARIAYKNWETEITAQPDGGFGYFGENCAVLSGAANGKWFDKRCRDQLPYICQFGIV" measured=170000
binder="105-20-2A3 ATRIMER complex (designed binder, Homotrimer of three identical chains (ATRIMER complex); one chain is given., not shown: C-terminal tag: His/Myc (pANA4) or HA-StrepII (pANA10)) EPPTQKPKKIVNAKKDVVNTKMFEELKSRLDTLAQEVALLKEQQALQTVCLKGTKVHMKCFLAFTQTKTFHEASEDCISRGGTLSTPQTGSENDALYEYLRQSVGNEAEIWLGLNGSPITNTWVDMTGARIAYKNWETEITAQPDGGFGYFGENCAVLSGAANGKWFDKRCRDQLPYICQFGIV" measured=412000
binder="101-113-6C102 ATRIMER complex (designed binder, not shown: C-terminal tag) EPPTQKPKKIVNAKKDVVNTKMFEELKSRLDTLAQEVALLKEQQALQTVCLKGTKVHMKCFLAFTQTKTFHEASEDCISRGGTLSTPQTGSENDALYEYLRQSVGNEAEIWLGLNGSNVTQTWVDMTGARIAYKNWEPPPPHHPQGGFGVFGENCAVLSGAANGKWFDKRCRDQLPYICQFGIV" measured=271000
binder="105-20-2F12 ATRIMER complex (designed binder, ATRIMER complex: homotrimer of three copies of this chain, joined by the tetranectin coiled coil, not shown: C-terminal tag: Myc/His (pANA4) or HA-StrepII (pANA10)) EPPTQKPKKIVNAKKDVVNTKMFEELKSRLDTLAQEVALLKEQQALQTVCLKGTKVHMKCFLAFTQTKTFHEASEDCISRGGTLSTPQTGSENDALYEYLRQSVGNEAEIWLGLNGSKLTDTWVDMTGARIAYKNWETEITAQPDGGFGYFGENCAVLSGAANGKWFDKRCRDQLPYICQFGIV" measured=254000

// next entry
Looking up 101-51-1A9 ATRIMER complex (designed binder) EPPTQKPKKIVNAKKDVVNTKMFEELKSRLDTLAQEVALLKEQQALQTVCLKGTKVHMKCFLAFTQTKTFHEASEDCISRGGTLSTPQTGSENDALYEYLRQSVGNEAEIWLGLNGSALTNTWVDMTGARIAYKNWEPARQPQPGGGFGYFGENCAVLSGAANGKWFDKRCRDQLPYICQFGIV , I found its kon recorded as 345000

Hello, the source for this data is patent US20110086806A1, in case you need it.
